Observed log10(Kd) values for ATP-dependent translocase ABCB1 (Homo sapiens, UniProt P08183) are listed in what follows.
readout.kind: log10(Kd) (log10 of the value in µM)

CC(C)=CCC/C(C)=C/c1c(O)cc2oc(-c3ccccc3)cc(=O)c2c1O: -1.35
C=CC(C)(C)c1c(O)cc(O)c2c(=O)c(O)c(-c3ccccc3)oc12: -0.35
COc1c(-c2ccccc2)oc2cc(O)cc(O)c2c1=O: 0.95
O=c1c(O)c(-c2ccc(F)cc2)oc2cc(O)cc(O)c12: 0.83
O=c1cc(-c2ccccc2)oc2cc(O)ccc12 [7-HYDROXYFLAVONE]: 1.54
CC(C)Oc1cc2oc(-c3ccccc3)cc(=O)c2c(O)c1C(C)C: -0.55
O=c1c(-c2ccc(O)cc2)coc2cc(O)cc(O)c12 [GENISTEIN]: 1.42
CC(C)=CCC/C(C)=C/c1c(O)cc(O)c2c(=O)cc(-c3ccccc3)oc12: -1.60
COc1ccc(-c2oc3cc(O)cc(O)c3c(=O)c2O)cc1 [KAEMPFERIDE]: 0.65
O=c1cc(-c2ccccc2)oc2cc(O)c(Cc3ccccc3)c(O)c12: -0.47
